Please respond with reported Selectivity, Ki (human)/Ki(Pc) for every item in the list.
- Target Entity: Pneumocystis carinii DHFR (Pneumocystis carinii, UniProt P16184)
- Sequence (P16184 whole entry): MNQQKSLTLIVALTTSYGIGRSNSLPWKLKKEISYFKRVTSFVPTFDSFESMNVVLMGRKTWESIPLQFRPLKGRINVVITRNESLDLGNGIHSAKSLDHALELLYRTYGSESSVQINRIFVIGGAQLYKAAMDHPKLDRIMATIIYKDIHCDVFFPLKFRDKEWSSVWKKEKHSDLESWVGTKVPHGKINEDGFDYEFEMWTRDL
- Assay Name: biochemical
- Measurement Parameters: ratio of human DHFR Ki to P. carinii DHFR Ki
# output: bare number, no unit

With Pneumocystis carinii DHFR (Pneumocystis carinii, UniProt P16184) as the test system, provide measured Selectivity, Ki (human)/Ki(Pc) for this molecule: CC1(C)N=C(N)N=C(N)N1c1cccc([N+](=O)[O-])c1 [Substituent 3-NO2]
0.7

With Pneumocystis carinii DHFR (Pneumocystis carinii, UniProt P16184) as the test system, provide measured Selectivity, Ki (human)/Ki(Pc) for this molecule: Cc1cccc(OCc2cccc(N3C(N)=NC(N)=NC3(C)C)c2)c1 [3-CH20ϕ, 3'CH3]
0.8

With Pneumocystis carinii DHFR (Pneumocystis carinii, UniProt P16184) as the test system, provide measured Selectivity, Ki (human)/Ki(Pc) for this molecule: CCCCCCCCCCCOc1cccc(N2C(N)=NC(N)=NC2(C)C)c1 [3-O(CH2)10CH3]
11.3

With Pneumocystis carinii DHFR (Pneumocystis carinii, UniProt P16184) as the test system, provide measured Selectivity, Ki (human)/Ki(Pc) for this molecule: CCCCCCOc1cccc(N2C(N)=NC(N)=NC2(C)C)c1 [3-O(CH2)5CH3]
7.2

With Pneumocystis carinii DHFR (Pneumocystis carinii, UniProt P16184) as the test system, provide measured Selectivity, Ki (human)/Ki(Pc) for this molecule: CC1(C)N=C(N)N=C(N)N1c1cccc(COc2cccc(CO)c2)c1 [3-CH2Oϕ, 3'CH2OH]
0.9

With Pneumocystis carinii DHFR (Pneumocystis carinii, UniProt P16184) as the test system, provide measured Selectivity, Ki (human)/Ki(Pc) for this molecule: COc1cccc(OCc2cccc(N3C(N)=NC(N)=NC3(C)C)c2)c1 [3-CH2Oϕ, 3'OCH3]
1.1

With Pneumocystis carinii DHFR (Pneumocystis carinii, UniProt P16184) as the test system, provide measured Selectivity, Ki (human)/Ki(Pc) for this molecule: CCOC(=O)c1cccc(N2C(N)=NC(N)=NC2(C)C)c1 [Substituent 3-CO2Et]
1.2

With Pneumocystis carinii DHFR (Pneumocystis carinii, UniProt P16184) as the test system, provide measured Selectivity, Ki (human)/Ki(Pc) for this molecule: CCCCCCCCCCCCCCOc1cccc(N2C(N)=NC(N)=NC2(C)C)c1 [3-O(CH2)13CH3]
2.3

With Pneumocystis carinii DHFR (Pneumocystis carinii, UniProt P16184) as the test system, provide measured Selectivity, Ki (human)/Ki(Pc) for this molecule: CC1(C)N=C(N)N=C(N)N1c1cccc(COc2ccc(Cl)c(Cl)c2Cl)c1 [3-CH2Oϕ, 2',3',4'Cl3]
2.5

With Pneumocystis carinii DHFR (Pneumocystis carinii, UniProt P16184) as the test system, provide measured Selectivity, Ki (human)/Ki(Pc) for this molecule: CC1(C)N=C(N)N=C(N)N1c1cccc(COc2cccc(Cl)c2)c1 [3-CH20ϕ, 3'Cl]
0.9

With Pneumocystis carinii DHFR (Pneumocystis carinii, UniProt P16184) as the test system, provide measured Selectivity, Ki (human)/Ki(Pc) for this molecule: CC1(C)N=C(N)N=C(N)N1c1cccc(CNc2ccc(C#N)cc2)c1 [3-CH2NHϕ, 4'CN]
1.5
